# System: T. cruzi epimastigotes
# RUN_DESCRIPTION: microbe, parasite or virus in culture
# Assay type: cell-based, Trypanosoma cruzi
# DETAILS: Trypanosoma cruzi, read-out: growth inhibition EC50 on T. cruzi epimastigotes
MEASURE: pEC50
The quantity pEC50 is defined as the negative base-10 logarithm of the molar concentration.

Prompt: Give pEC50 for the following compound: CC(C)C[C@H](NC(=O)[C@H](Cc1ccccc1)NC(=O)c1cnccn1)B(O)O
Completion: 6.80

###

# TARGET: PSMB4^I29M T. cruzi proteasome (Trypanosoma cruzi, UniProt Q4CU77+Q4D8U7, I29M)
# RUN_DESCRIPTION: Proteasome proteolytic activities, PSMB4^I29M T. cruzi proteasome
# Format: biochemical
# DETAILS: IC50 caspase, caspase-like activity, mean ± s.e.m., n=3
MEASURE: pIC50
The quantity pIC50 is defined as the negative base-10 logarithm of the molar concentration.

Prompt: Give pIC50 for the following molecule: CC(C)C[C@H](NC(=O)[C@H](Cc1ccccc1)NC(=O)c1cnccn1)B(O)O
Completion: 6.27
